- Species: Rattus norvegicus
- run.description: DrugMatrix - Regimen: Daily Repeat
- Type: toxicity, organism-based, Sprague-Dawley
- Set-up: regimen Daily Repeat, gender Male, age 6-8 weeks
- run.parameters: in vivo, po, 0 mg/kg, 120 h, tissue Blood, route oral GAVAGE, dose level Control, time 5 day, […]
measured.attribute: ERYTHROCYTE COUNT
Answer with the figure and its unit, nothing else.

Record excerpt, results attached:
compound | ERYTHROCYTE COUNT
Cc1noc(NS(=O)(=O)c2ccc(N)cc2)c1C | 5.82 x10E6/uL
CCC(C)n1ncn(-c2ccc(N3CCN(c4ccc(OCC5COC(Cn6cncn6)(c6ccc(Cl)cc6Cl)O5)cc4)CC3)cc2)c1=O (centres undefined) | 5.24 x10E6/uL
Cc1oncc1C(=O)Nc1ccc(C(F)(F)F)cc1 [LEFLUNOMIDE] | 5.19 x10E6/uL
O=C(O)CCCc1ccc(N(CCCl)CCCl)cc1 | 5.24 x10E6/uL
O=c1oc2ccccc2c(O)c1Cc1c(O)c2ccccc2oc1=O | 5.74 x10E6/uL

// input: 4 compounds below; output: ERYTHROCYTE COUNT for each
1. Cc1ccc(-c2cc(C(F)(F)F)nn2-c2ccc(S(N)(=O)=O)cc2)cc1
2. CC(C)C(=O)Nc1ccc([N+](=O)[O-])c(C(F)(F)F)c1 [FLUTAMIDE]
3. CCOC(=O)C1=C(COCCN)NC(C)=C(C(=O)OC)C1c1ccccc1Cl (centres undefined)
4. CN(C)c1nc(N(C)C)nc(N(C)C)n1

1. 5.24 x10E6/uL
2. 5.61 x10E6/uL
3. 5.58 x10E6/uL
4. 5.58 x10E6/uL

For the 5 compounds below, give their ERYTHROCYTE COUNT values.
1. CC(C)(Oc1ccc(Cl)cc1)C(=O)O
2. O=NN(CCCl)C(=O)NC1CCCCC1
3. OC(Cn1cncn1)(Cn1cncn1)c1ccc(F)cc1F
4. C[C@H]1O[C@@H](O[C@H]2[C@@H](O)C[C@H](O[C@H]3[C@@H](O)C[C@H](O[C@H]4CC[C@@]5(C)[C@H](CC[C@@H]6[C@@H]5C[C@@H](O)[C@]5(C)[C@@H](C7=CC(=O)OC7)CC[C@]65O)C4)O[C@@H]3C)O[C@@H]2C)C[C@H](O)[C@@H]1O
5. C[C@@H]1CN(c2c(F)c(N)c3c(=O)c(C(=O)O)cn(C4CC4)c3c2F)C[C@H](C)N1

1. 5.5 x10E6/uL
2. 5.58 x10E6/uL
3. 5.24 x10E6/uL
4. 5.36 x10E6/uL
5. 5.58 x10E6/uL

###

Provide the recorded ABSOLUTE MONOCYTE for the entries that follow.
- Organism: Rattus norvegicus
- run.description: DrugMatrix - Regimen: Daily Repeat
- Type: toxicity, organism-based, Sprague-Dawley
- Parameters: regimen Daily Repeat, gender Male, age 6-8 weeks
- run.parameters: in vivo, po, 0 mg/kg, 72 h, tissue Blood, route oral GAVAGE, dose level Control, time 3 day, […]
Answers are plain numbers, in CELLS/uL.

Worked examples, 2 compounds total:
compound | measurement.units | ABSOLUTE MONOCYTE
Cc1noc(NS(=O)(=O)c2ccc(N)cc2)c1C | CELLS/uL | 172.17
Cc1oncc1C(=O)Nc1ccc(C(F)(F)F)cc1 [LEFLUNOMIDE] | CELLS/uL | 155.67

Can you give me ABSOLUTE MONOCYTE for all of these, one by one?
1. OC(Cn1cncn1)(Cn1cncn1)c1ccc(F)cc1F
2. O=C(O)CCCc1ccc(N(CCCl)CCCl)cc1
3. CCC(C)n1ncn(-c2ccc(N3CCN(c4ccc(OCC5COC(Cn6cncn6)(c6ccc(Cl)cc6Cl)O5)cc4)CC3)cc2)c1=O (centres undefined)
4. CC(C)C(=O)Nc1ccc([N+](=O)[O-])c(C(F)(F)F)c1 [FLUTAMIDE]
5. C[C@@H]1CN(c2c(F)c(N)c3c(=O)c(C(=O)O)cn(C4CC4)c3c2F)C[C@H](C)N1

1: 292; 2: 292; 3: 292; 4: 50; 5: 214.17

Okay, here is my list. What is ABSOLUTE MONOCYTE for each of these?
1. O=c1oc2ccccc2c(O)c1Cc1c(O)c2ccccc2oc1=O
2. CN(C)c1nc(N(C)C)nc(N(C)C)n1

1: 102; 2: 214.17

###

Consider the following molecules; for each one, report its SODIUM.
- Species on record: Rattus norvegicus
- run.description: DrugMatrix - Regimen: Daily Repeat
- Assay type: toxicity, organism-based, Sprague-Dawley
- Parameters: regimen Daily Repeat, gender Male, age 6-8 weeks
- run.parameters: in vivo, po, 0 mg/kg, 120 h, tissue Plasma, route oral GAVAGE, dose level Control, time 5 day, vehicle .5 % CMC

molecule | measured.attribute | assay.value
ClC(Cl)Br [BROMODICHLOROMETHANE] | SODIUM | 143.45 MEQ/L
CCOP(=S)(OCC)Oc1nc(Cl)c(Cl)cc1Cl [CHLORPYRIFOS] | SODIUM | 148.17 MEQ/L
O=C(CCCN1CC=C(n2c(=O)[nH]c3ccccc32)CC1)c1ccc(F)cc1 [DROPERIDOL] | SODIUM | 148.33 MEQ/L
CCn1cc(C(=O)O)c(=O)c2cc(F)c(N3CCNCC3)cc21 [NORFLOXACIN] | SODIUM | 142.75 MEQ/L
CCCN1C[C@H](CSC)C[C@@H]2c3cccc4[nH]cc(c34)C[C@H]21 [PERGOLIDE] | SODIUM | 144.25 MEQ/L

Please give SODIUM for each item listed below.
1. C1CCC(C(CC2CCCCN2)C2CCCCC2)CC1 (stereo not drawn) [PERHEXILINE]
2. OCCN(CCO)c1nc(N2CCCCC2)c2nc(N(CCO)CCO)nc(N3CCCCC3)c2n1 [DIPYRIDAMOLE]
3. Nc1ccn([C@H]2CC[C@@H](CO)O2)c(=O)n1 [ZALCITABINE]
4. CN1CCN(CCCN2c3ccccc3Sc3ccc(Cl)cc32)CC1 [PROCHLORPERAZINE]
5. CC1CC(OC(=O)C(O)c2ccccc2)CC(C)(C)C1 (stereo not drawn) [CYCLANDELATE]

1. 147 MEQ/L
2. 144.83 MEQ/L
3. 139 MEQ/L
4. 142.65 MEQ/L
5. 144.83 MEQ/L

Look up SODIUM for the entries below, preserving their order.
1. CCCCc1oc2ccccc2c1C(=O)c1cc(I)c(OCCN(CC)CC)c(I)c1 [AMIODARONE]
2. CC(C)(C)NC(=O)[C@@H]1C[C@@H]2CCCC[C@@H]2CN1C[C@@H](O)[C@H](Cc1ccccc1)NC(=O)[C@H](CC(N)=O)NC(=O)c1ccc2ccccc2n1

1. 150.5 MEQ/L
2. 143.8 MEQ/L

// batch mode: one SODIUM value per listed entry
1. N=C(N)NCCN1CCCCCCC1 [GUANETHIDINE]
2. ClC(Br)Br [DIBROMOCHLOROMETHANE]
3. Cc1nc2n(c(=O)c1CCN1CCC(c3noc4cc(F)ccc34)CC1)CCCC2 [RISPERIDONE]
4. Cc1ccc(/N=C/N(C)/C=N/c2ccc(C)cc2C)c(C)c1 [AMITRAZ]
5. COc1nc(C)nc(Cl)c1N=C1NCCN1 [MOXONIDINE]

1. 144.83 MEQ/L
2. 143.45 MEQ/L
3. 150.5 MEQ/L
4. 142.75 MEQ/L
5. 142.8 MEQ/L

For reference, reported SODIUM for NC1=NC(=O)C(c2ccccc2)O1 (stereo not drawn) [PEMOLINE] stands at 150.17 MEQ/L

###

- Organism: Rattus norvegicus
- run.description: DrugMatrix - Regimen: Daily Repeat
- Type: toxicity, organism-based, Sprague-Dawley
- Parameters: regimen Daily Repeat, gender Male, age 6-8 weeks
- run.parameters: in vivo, po, 120 mg/kg, 120 h, tissue Blood, route oral GAVAGE, dose level High, time 5 day, vehicle 100 % WATER
measured.attribute: ABSOLUTE MONOCYTE (CELLS/uL)
Answers are plain numbers, in CELLS/uL.

So, c1ccc([C@H]2CN3CCSC3=N2)cc1 [LEVAMISOLE] ? Its ABSOLUTE MONOCYTE was 159

###

- Organism: Rattus norvegicus
- run.description: DrugMatrix - Regimen: Daily Repeat
- Format: toxicity, organism-based, Sprague-Dawley
- Set-up: regimen Daily Repeat, gender Male, age 6-8 weeks
- run.parameters: in vivo, ip, 0 mg/kg, […], tissue Blood, route intraperitoneal, dose level Control, time 28 day, vehicle 100 % SALINE
measured.attribute: ABSOLUTE MONOCYTE (cells/µL)
Answers are plain numbers, in cells/µL.

response.value for LEAD (II) ACETATE (field: ABSOLUTE MONOCYTE) = 210

###

Would you kindly list LIPASE for each of these compounds?
- Species: Rattus norvegicus
- run.description: DrugMatrix - Regimen: Daily Repeat
- Format: toxicity, organism-based, Sprague-Dawley
- Set-up: regimen Daily Repeat, gender Male, age 6-8 weeks
- run.parameters: in vivo, po, 0 mg/kg, 72 h, tissue Plasma, route oral GAVAGE, dose level Control, time 3 day, vehicle 100 % WATER
One number for each entry, in u/L.

compound | measurement.units | assay.value
C[C@H]1c2cccc(O)c2C(=O)C2=C(O)[C@]3(O)C(=O)C(C(N)=O)=C(O)[C@@H](N(C)C)[C@@H]3[C@@H](O)[C@@H]21.O | u/L | 9.5
CNNCc1ccc(C(=O)NC(C)C)cc1 | u/L | 9.17
C[C@H](CS)C(=O)N1CCC[C@H]1C(=O)O | u/L | 16.17
CN(C)CCCN1c2ccccc2Sc2ccc(Cl)cc21 | u/L | 12.67
c1ccc([C@H]2CN3CCSC3=N2)cc1 | u/L | 11.17

Go through the items and report each one's LIPASE.
1. N[C@@H](Cc1ccc(O)c(O)c1)C(=O)O
2. C=CCC1(C(C)CCC)C(=O)NC(=O)NC1=O (centres undefined)
3. Clc1cccc(Cl)c1N=C1NCCN1
4. CC(O)CO (centres undefined)
5. C[C@](N)(Cc1ccc(O)c(O)c1)C(=O)O
6. Cn1cc[nH]c1=S
7. NCCCCCC(=O)O

9.5
9.5
9.67
9.83
10.67
9.5
9.83

Consider the following items and state reported LIPASE for each.
1. COc1cc2nc(N3CCN(C(=O)C4COc5ccccc5O4)CC3)nc(N)c2cc1OC (centres undefined)
2. Cc1onc(-c2ccccc2Cl)c1C(=O)N[C@@H]1C(=O)N2[C@@H]1SC(C)(C)[C@@H]2C(=O)O

1. 9.5
2. 9.83
